# assay_info: Powder dissolution, USP/NF paddle method with HPLC analysis
# Format: physicochemical
# run_parameters: 15 min; 500 mg in 900 mL water, 37 °C, 75 rpm; replicate #3; trihydrate
quantity: Amoxicillin released in solution #3 (%)

CC1(C)S[C@@H]2[C@H](NC(=O)[C@H](N)c3ccc(O)cc3)C(=O)N2[C@H]1C(=O)O.O.O.O [entry 1, amoxicillin trihydrate] ... 99.38
CC1(C)S[C@@H]2[C@H](NC(=O)[C@H](N)c3ccc(O)cc3)C(=O)N2[C@H]1C(=O)O.O.O.O [entry 5, amoxicillin trihydrate] ... 84.94
CC1(C)S[C@@H]2[C@H](NC(=O)[C@H](N)c3ccc(O)cc3)C(=O)N2[C@H]1C(=O)O.O.O.O [entry 3, amoxicillin trihydrate] ... 99.55
CC1(C)S[C@@H]2[C@H](NC(=O)[C@H](N)c3ccc(O)cc3)C(=O)N2[C@H]1C(=O)O.O.O.O [entry 6, amoxicillin trihydrate] ... 90.95
CC1(C)S[C@@H]2[C@H](NC(=O)[C@H](N)c3ccc(O)cc3)C(=O)N2[C@H]1C(=O)O.O.O.O [entry 2, amoxicillin trihydrate] ... 99.80
CC1(C)S[C@@H]2[C@H](NC(=O)[C@H](N)c3ccc(O)cc3)C(=O)N2[C@H]1C(=O)O.O.O.O [entry 4, amoxicillin trihydrate] ... 89.49

---

# assay_info: Powder dissolution, USP/NF paddle method with HPLC analysis
# Type: physicochemical
# run_parameters: 15 min; 500 mg in 900 mL water, 37 °C, 75 rpm; replicate #2; trihydrate
quantity: Amoxicillin released in solution #2 (%)

CC1(C)S[C@@H]2[C@H](NC(=O)[C@H](N)c3ccc(O)cc3)C(=O)N2[C@H]1C(=O)O.O.O.O [entry 2, amoxicillin trihydrate] ... 98.98
CC1(C)S[C@@H]2[C@H](NC(=O)[C@H](N)c3ccc(O)cc3)C(=O)N2[C@H]1C(=O)O.O.O.O [entry 1, amoxicillin trihydrate] ... 98.69
CC1(C)S[C@@H]2[C@H](NC(=O)[C@H](N)c3ccc(O)cc3)C(=O)N2[C@H]1C(=O)O.O.O.O [entry 3, amoxicillin trihydrate] ... 100.64
CC1(C)S[C@@H]2[C@H](NC(=O)[C@H](N)c3ccc(O)cc3)C(=O)N2[C@H]1C(=O)O.O.O.O [entry 6, amoxicillin trihydrate] ... 85.45
CC1(C)S[C@@H]2[C@H](NC(=O)[C@H](N)c3ccc(O)cc3)C(=O)N2[C@H]1C(=O)O.O.O.O [entry 4, amoxicillin trihydrate] ... 89.05
CC1(C)S[C@@H]2[C@H](NC(=O)[C@H](N)c3ccc(O)cc3)C(=O)N2[C@H]1C(=O)O.O.O.O [entry 5, amoxicillin trihydrate] ... 92.05

---

# assay_info: Specific powder surface area by nitrogen gas sorption (BET)
# Format: physicochemical
# run_parameters: triplicate, trihydrate
quantity: Surface Area Mean ± SD (n = 3) (m^2 · g^−1)

These recorded examples may help you get a feel for the data.
CC1(C)S[C@@H]2[C@H](NC(=O)[C@H](N)c3ccc(O)cc3)C(=O)N2[C@H]1C(=O)O.O.O.O [entry 1, amoxicillin trihydrate] ... 0.58
CC1(C)S[C@@H]2[C@H](NC(=O)[C@H](N)c3ccc(O)cc3)C(=O)N2[C@H]1C(=O)O.O.O.O [entry 3, amoxicillin trihydrate] ... 0.72
CC1(C)S[C@@H]2[C@H](NC(=O)[C@H](N)c3ccc(O)cc3)C(=O)N2[C@H]1C(=O)O.O.O.O [entry 5, amoxicillin trihydrate] ... 2.03
CC1(C)S[C@@H]2[C@H](NC(=O)[C@H](N)c3ccc(O)cc3)C(=O)N2[C@H]1C(=O)O.O.O.O [entry 6, amoxicillin trihydrate] ... 1.69

(I) CC1(C)S[C@@H]2[C@H](NC(=O)[C@H](N)c3ccc(O)cc3)C(=O)N2[C@H]1C(=O)O.O.O.O [entry 2, amoxicillin trihydrate]
(II) CC1(C)S[C@@H]2[C@H](NC(=O)[C@H](N)c3ccc(O)cc3)C(=O)N2[C@H]1C(=O)O.O.O.O [entry 4, amoxicillin trihydrate]
[Q] Param pair: I , II . Output: the one whose Surface Area Mean ± SD (n = 3) is numerically greater. // output: label of the selected item
[A] II

---

# assay_info: Powder dissolution, USP/NF paddle method with HPLC analysis
# Type: physicochemical
# run_parameters: 1 min; 500 mg in 900 mL water, 37 °C, 75 rpm; replicate #2; trihydrate
quantity: Amoxicillin released in solution #2 (%)

CC1(C)S[C@@H]2[C@H](NC(=O)[C@H](N)c3ccc(O)cc3)C(=O)N2[C@H]1C(=O)O.O.O.O [entry 4, amoxicillin trihydrate] ... 57.74
CC1(C)S[C@@H]2[C@H](NC(=O)[C@H](N)c3ccc(O)cc3)C(=O)N2[C@H]1C(=O)O.O.O.O [entry 3, amoxicillin trihydrate] ... 60.63
CC1(C)S[C@@H]2[C@H](NC(=O)[C@H](N)c3ccc(O)cc3)C(=O)N2[C@H]1C(=O)O.O.O.O [entry 6, amoxicillin trihydrate] ... 72.37
CC1(C)S[C@@H]2[C@H](NC(=O)[C@H](N)c3ccc(O)cc3)C(=O)N2[C@H]1C(=O)O.O.O.O [entry 1, amoxicillin trihydrate] ... 86.65
CC1(C)S[C@@H]2[C@H](NC(=O)[C@H](N)c3ccc(O)cc3)C(=O)N2[C@H]1C(=O)O.O.O.O [entry 2, amoxicillin trihydrate] ... 61.21
CC1(C)S[C@@H]2[C@H](NC(=O)[C@H](N)c3ccc(O)cc3)C(=O)N2[C@H]1C(=O)O.O.O.O [entry 5, amoxicillin trihydrate] ... 62.91

---

# assay_info: Contact angle by sessile drop method (water)
# Type: physicochemical
# run_parameters: ambient conditions, trihydrate
quantity: Contact Angle Mean ± SD (n = 4)

These recorded examples may help you get a feel for the data.
CC1(C)S[C@@H]2[C@H](NC(=O)[C@H](N)c3ccc(O)cc3)C(=O)N2[C@H]1C(=O)O.O.O.O [entry 6, amoxicillin trihydrate] ... 107.84
CC1(C)S[C@@H]2[C@H](NC(=O)[C@H](N)c3ccc(O)cc3)C(=O)N2[C@H]1C(=O)O.O.O.O [entry 3, amoxicillin trihydrate] ... 71.54
CC1(C)S[C@@H]2[C@H](NC(=O)[C@H](N)c3ccc(O)cc3)C(=O)N2[C@H]1C(=O)O.O.O.O [entry 2, amoxicillin trihydrate] ... 67.70

(1) CC1(C)S[C@@H]2[C@H](NC(=O)[C@H](N)c3ccc(O)cc3)C(=O)N2[C@H]1C(=O)O.O.O.O [entry 1, amoxicillin trihydrate]
(2) CC1(C)S[C@@H]2[C@H](NC(=O)[C@H](N)c3ccc(O)cc3)C(=O)N2[C@H]1C(=O)O.O.O.O [entry 4, amoxicillin trihydrate]
[Q] Pick one, 1 or 2 : lowest reported Contact Angle Mean ± SD (n = 4). // output: label of the selected item
[A] 1
(1: 75.50, 2: 110.68)

---

# assay_info: Powder dissolution, USP/NF paddle method with HPLC analysis
# Type: physicochemical
# run_parameters: 1 min; 500 mg in 900 mL water, 37 °C, 75 rpm; replicate #3; trihydrate
quantity: Amoxicillin released in solution #3 (%)

CC1(C)S[C@@H]2[C@H](NC(=O)[C@H](N)c3ccc(O)cc3)C(=O)N2[C@H]1C(=O)O.O.O.O [entry 2, amoxicillin trihydrate] ... 62.23
CC1(C)S[C@@H]2[C@H](NC(=O)[C@H](N)c3ccc(O)cc3)C(=O)N2[C@H]1C(=O)O.O.O.O [entry 1, amoxicillin trihydrate] ... 86.65
CC1(C)S[C@@H]2[C@H](NC(=O)[C@H](N)c3ccc(O)cc3)C(=O)N2[C@H]1C(=O)O.O.O.O [entry 5, amoxicillin trihydrate] ... 58.32
CC1(C)S[C@@H]2[C@H](NC(=O)[C@H](N)c3ccc(O)cc3)C(=O)N2[C@H]1C(=O)O.O.O.O [entry 3, amoxicillin trihydrate] ... 61.23
CC1(C)S[C@@H]2[C@H](NC(=O)[C@H](N)c3ccc(O)cc3)C(=O)N2[C@H]1C(=O)O.O.O.O [entry 4, amoxicillin trihydrate] ... 57.67
CC1(C)S[C@@H]2[C@H](NC(=O)[C@H](N)c3ccc(O)cc3)C(=O)N2[C@H]1C(=O)O.O.O.O [entry 6, amoxicillin trihydrate] ... 68.67

---

# assay_info: Powder dissolution, USP/NF paddle method with HPLC analysis
# Assay type: physicochemical
# run_parameters: 5 min; 500 mg in 900 mL water, 37 °C, 75 rpm; replicate #1; trihydrate
quantity: Amoxicillin released in solution #1 (%)

CC1(C)S[C@@H]2[C@H](NC(=O)[C@H](N)c3ccc(O)cc3)C(=O)N2[C@H]1C(=O)O.O.O.O [entry 5, amoxicillin trihydrate] ... 83.91
CC1(C)S[C@@H]2[C@H](NC(=O)[C@H](N)c3ccc(O)cc3)C(=O)N2[C@H]1C(=O)O.O.O.O [entry 1, amoxicillin trihydrate] ... 99.44
CC1(C)S[C@@H]2[C@H](NC(=O)[C@H](N)c3ccc(O)cc3)C(=O)N2[C@H]1C(=O)O.O.O.O [entry 2, amoxicillin trihydrate] ... 99.89
CC1(C)S[C@@H]2[C@H](NC(=O)[C@H](N)c3ccc(O)cc3)C(=O)N2[C@H]1C(=O)O.O.O.O [entry 6, amoxicillin trihydrate] ... 84.40
CC1(C)S[C@@H]2[C@H](NC(=O)[C@H](N)c3ccc(O)cc3)C(=O)N2[C@H]1C(=O)O.O.O.O [entry 4, amoxicillin trihydrate] ... 85.25
CC1(C)S[C@@H]2[C@H](NC(=O)[C@H](N)c3ccc(O)cc3)C(=O)N2[C@H]1C(=O)O.O.O.O [entry 3, amoxicillin trihydrate] ... 99.68

Data provenance: patent US9820943B2
